Assay: Effect of estramustine phosphate and clodronate on their mutual bioavailability (serum AUC0-24h, Cmax, serum estradiol) in patients
Conditions: male, human, in vivo, 3200 mg
Protocol: Twelve male patients aged 62-80 were divided into two groups of six patients. The first group of six patients were given 3200 mg daily of clodronate only for four days. On the fifth day the AUC0-24 h for the drug was calculated from serum concentrations of repeated blood samples. […] On day ten, the AUC0-24 h for both drugs was calculated. The second group of six patients were give orally 560 mg daily of estramustine phosphate only for four days. […] On day ten, the AUC0-24 h for both drugs was calculated. […]
Endpoint: AUC0-24h Clodronate (ng·h/mL)
Numbers only, in ng·h/mL.

Given the molecule O=P(O)(O)C(Cl)(Cl)P(=O)(O)O [Clodronate, Disodium clodronate] , what is its reported AUC0-24h Clodronate?
19300

Taken from patent US20040014729A1.
